- System: Calu-1
- assay.method.text: Anticancer activity against human Calu1 cells at 10 uM after 48 hrs by propidium iodide fluorescence assay
- Type: functional
recorded.metric: Activity (%)
Provide only the numeric value, understood in %.

COc1ccc(C(=O)/C=C/C=C(\Cl)c2ccc(OC)cc2OC)cc1 | 7
COc1ccc(C(=O)/C=C/C=C(\Cl)c2ccc(OC)cc2)cc1 | 38
COc1ccc(C(=O)/C=C/C=C(\Cl)c2ccc(Br)cc2)cc1 | 29

Q) // returns reported Activity for input COc1ccc(C(=O)/C=C/C=C(\Cl)c2cccc(Cl)c2)c(OC)c1
A) 40

Q) // returns reported Activity for input COc1ccc(/C(Cl)=C/C=C/C(=O)c2ccc(OC)cc2OC)cc1
A) 31

Q) // returns reported Activity for input COc1ccc(C(=O)/C=C/C=C(\Cl)c2ccc(F)cc2)c(OC)c1
A) 36

* * *

- Tested on: Trichoderma viride
- assay.method.text: Antifungal activity against Trichoderma viride MTCC 167 at 100 ug/ml after 48 hrs agar diffusion method
- Assay type: functional
- experimental.setup: MTCC 167, 48 h, read-out: IZ
recorded.metric: zone of inhibition at 100 µg/mL (mm)
Provide only the numeric value, understood in mm.

COc1ccc(C(=O)/C=C/C=C(\Cl)c2ccc(OC)cc2)cc1 | 14

Q) // returns reported zone of inhibition at 100 µg/mL for input COc1ccc(C(=O)/C=C/C=C(\Cl)c2ccc(Cl)cc2)c(OC)c1
A) 12

Q) // returns reported zone of inhibition at 100 µg/mL for input COc1ccc(C(=O)/C=C/C=C(\Cl)c2cccc(Cl)c2)cc1
A) 11

Q) // returns reported zone of inhibition at 100 µg/mL for input COc1ccc(/C(Cl)=C/C=C/C(=O)c2ccc(OC)cc2OC)cc1
A) 14

Q) // returns reported zone of inhibition at 100 µg/mL for input COc1ccc(C(=O)/C=C/C=C(\Cl)c2ccc(OC)cc2OC)cc1
A) 12

Q) // returns reported zone of inhibition at 100 µg/mL for input COc1ccc(C(=O)/C=C/C=C(\Cl)c2ccc(Br)cc2)cc1
A) 8

* * *

- System: NCI-H460
- assay.method.text: Anticancer activity against human H460 cells at 10 uM after 48 hrs by propidium iodide fluorescence assay
- Type: functional
Label true when Activity >= 30%; otherwise false.

Some entries whose results are on file:
COc1ccc(C(=O)/C=C/C=C(\Cl)c2ccc(Cl)cc2)c(OC)c1 | false
COc1ccc(C(=O)/C=C/C=C(\Cl)c2ccc(F)cc2)cc1 | false
COc1ccc(/C(Cl)=C/C=C/C(=O)c2ccc(OC)cc2OC)cc1 | true
COc1ccc(C(=O)/C=C/C=C(\Cl)c2cccc(Cl)c2)cc1 | false
COc1ccc(C(=O)/C=C/C=C(\Cl)c2cccc(Cl)c2)c(OC)c1 | true

Q) Please tell me: is the molecule COc1ccc(C(=O)/C=C/C=C(\Cl)c2ccc(OC)cc2)cc1 at or over 30% in terms of Activity?
A) false

Q) Please tell me: is the molecule COc1ccc(C(=O)/C=C/C=C(\Cl)c2ccc(Br)cc2)cc1 at or over 30% in terms of Activity?
A) false

* * *

- Tested on: Proteus vulgaris
- assay.method.text: Antibacterial activity against Proteus vulgaris MTCC 1771 at 50 ug/ml after 24 hrs agar diffusion method
- Assay type: functional
- experimental.setup: MTCC 1771, 24 h, read-out: IZ
In this section, each of the compounds is paired with its reported zone of inhibition at 50 µg/mL.
Provide only the numeric value, understood in mm.

COc1ccc(C(=O)/C=C/C=C(\Cl)c2cccc(Cl)c2)cc1 | 15
COc1ccc(C(=O)/C=C/C=C(\Cl)c2cccc(Cl)c2)c(OC)c1 | 13
COc1ccc(C(=O)/C=C/C=C(\Cl)c2ccc(F)cc2)c(OC)c1 | 16
COc1ccc(C(=O)/C=C/C=C(\Cl)c2ccc(Cl)cc2)c(OC)c1 | 18
COc1ccc(C(=O)/C=C/C=C(\Cl)c2ccc(OC)cc2OC)c(OC)c1 | 13
CN(C)[C@@H]1C(O)=C(C(N)=O)C(=O)[C@@]2(O)C(O)=C3C(=O)c4c(O)cccc4[C@@](C)(O)[C@H]3C[C@@H]12 | 16
COc1ccc(C(=O)/C=C/C=C(\Cl)c2ccc(F)cc2)cc1 | 16
COc1ccc(C(=O)/C=C/C=C(\Cl)c2ccc(Br)cc2)c(OC)c1 | 10

Q) // returns reported zone of inhibition at 50 µg/mL for input COc1ccc(/C(Cl)=C/C=C/C(=O)c2ccc(OC)cc2OC)cc1
A) 15

* * *

- Tested on: HCT-116
- assay.method.text: Anticancer activity against human HCT116 cells at 10 uM after 48 hrs by propidium iodide fluorescence assay
- Assay type: functional
In this section, each of the compounds is paired with its reported Activity.
Provide only the numeric value, understood in %.

COc1ccc(C(=O)/C=C/C=C(\Cl)c2ccc(Br)cc2)c(OC)c1 | 22
COc1ccc(C(=O)/C=C/C=C(\Cl)c2ccc(OC)cc2OC)c(OC)c1 | 29

Q) // returns reported Activity for input COc1ccc(C(=O)/C=C/C=C(\Cl)c2ccc(Br)cc2)cc1
A) 20

Q) // returns reported Activity for input COc1ccc(C(=O)/C=C/C=C(\Cl)c2cccc(Cl)c2)cc1
A) 31

Q) // returns reported Activity for input COc1ccc(/C(Cl)=C/C=C/C(=O)c2ccc(OC)cc2OC)cc1
A) 31

Q) // returns reported Activity for input COc1ccc(C(=O)/C=C/C=C(\Cl)c2ccc(OC)cc2OC)cc1
A) 0

Q) // returns reported Activity for input COc1ccc(C(=O)/C=C/C=C(\Cl)c2ccc(OC)cc2)cc1
A) 16

Q) // returns reported Activity for input COc1ccc(C(=O)/C=C/C=C(\Cl)c2ccc(Cl)cc2)c(OC)c1
A) 26

Q) // returns reported Activity for input COc1ccc(C(=O)/C=C/C=C(\Cl)c2ccc(F)cc2)cc1
A) 0

Q) // returns reported Activity for input COc1ccc(C(=O)/C=C/C=C(\Cl)c2ccc(Cl)cc2)cc1
A) 29

Q) // returns reported Activity for input COc1ccc(C(=O)/C=C/C=C(\Cl)c2ccc(F)cc2)c(OC)c1
A) 14

Q) // returns reported Activity for input COc1ccc(C(=O)/C=C/C=C(\Cl)c2cccc(Cl)c2)c(OC)c1
A) 37

* * *

- Test system: Aspergillus flavus
- assay.method.text: Antifungal activity against Aspergillus flavus MTCC 2501 at 100 ug/ml after 48 hrs agar diffusion method
- Format: functional
- experimental.setup: MTCC 2501, 48 h, read-out: IZ
recorded.metric: zone of inhibition at 100 µg/mL
Be sure to follow the number with its unit.

As a guide, the following entries are already answered.
COc1ccc(C(=O)/C=C/C=C(\Cl)c2ccc(F)cc2)cc1 | 15 mm
COc1ccc(C(=O)/C=C/C=C(\Cl)c2ccc(Cl)cc2)c(OC)c1 | 12 mm
COc1ccc(C(=O)/C=C/C=C(\Cl)c2ccc(F)cc2)c(OC)c1 | 10 mm
COc1ccc(C(=O)/C=C/C=C(\Cl)c2ccc(Br)cc2)c(OC)c1 | 18 mm

Q) // returns reported zone of inhibition at 100 µg/mL for input COc1ccc(C(=O)/C=C/C=C(\Cl)c2ccc(Br)cc2)cc1
A) 8 mm

Q) // returns reported zone of inhibition at 100 µg/mL for input COc1ccc(C(=O)/C=C/C=C(\Cl)c2ccc(Cl)cc2)cc1
A) 12 mm

* * *

- Test system: Trichoderma viride
- assay.method.text: Antifungal activity against Trichoderma viride MTCC 167 at 100 ug/ml after 48 hrs agar diffusion method
- Assay type: functional
- experimental.setup: MTCC 167, 48 h, read-out: IZ
recorded.metric: zone of inhibition at 100 µg/mL (mm)
Provide only the numeric value, understood in mm.

COc1ccc(C(=O)/C=C/C=C(\Cl)c2ccc(F)cc2)cc1 | 14
COc1ccc(C(=O)/C=C/C=C(\Cl)c2ccc(Cl)cc2)cc1 | 12
COc1ccc(C(=O)/C=C/C=C(\Cl)c2cccc(Cl)c2)c(OC)c1 | 13

// next item, zone of inhibition at 100 µg/mL requested
Q) // returns reported zone of inhibition at 100 µg/mL for input COc1ccc(C(=O)/C=C/C=C(\Cl)c2ccc(Br)cc2)c(OC)c1
A) 16

Entry source: ChEMBL document CHEMBL1157556
